Measured values drawn from paper PMC11855827 for this set.

Tested on: C. elegans
Conditions: Table S2, C. elegans SS assay, 110 μM, 0 h, averages of 4 data points
parameter: Percentage of motility inhibition 0 h (%)
The response must be a number in % with no trailing unit.

IN: For CO/N=C(\C(=O)N[C@@H]1C(=O)N2C(C(=O)[O-])=C(C[n+]3ccn4ncccc43)CS[C@H]12)c1nsc(N)n1.Cl [Cefozopran (hydrochloride)] , what is its reported Percentage of motility inhibition 0 h?
OUT: 10

IN: For CC(C)(O[C@@H]1O[C@H](CO)[C@@H](O)[C@H](O)[C@H]1O)[C@@H]1CC[C@](O)(CO)[C@H]2CC(=O)[C@@](C)(O)[C@@H]2C1 [Atractyloside A] , what is its reported Percentage of motility inhibition 0 h?
OUT: 13

IN: For CN[C@@H](C)[C@H]1[C@H](O)C[C@@]2(C)[C@@H]3CC[C@H]4C(C)(C)[C@@H](NC)CC[C@@]45C[C@@]35CC[C@]12C [Cyclovirobuxine D] , what is its reported Percentage of motility inhibition 0 h?
OUT: 20

IN: For CC1(C)CC[C@]2(C(=O)O)CC[C@]3(C)C(=CC[C@@H]4[C@@]5(C)C[C@H](O)[C@H](O)[C@@](C)(C(=O)O)[C@@H]5CC[C@]43C)[C@@H]2C1 [Medicagenic acid] , what is its reported Percentage of motility inhibition 0 h?
OUT: 0

IN: For COc1ccc(-c2oc3c(CC=C(C)C)c(O)cc(O)c3c(=O)c2O[C@@H]2O[C@@H](C)[C@H](O)[C@@H](O)[C@H]2O)cc1 [Baohuoside I] , what is its reported Percentage of motility inhibition 0 h?
OUT: 0

IN: For O=c1[nH]c2ccccc2c(-c2cccc(O)c2)c1O [Viridicatol] , what is its reported Percentage of motility inhibition 0 h?
OUT: 0

====

Could you please report measured inhibition at 110 µM for the items listed next?
Tested on: C. elegans
Assay: microbe, parasite or virus in culture
Settings: Caenorhabditis elegans, 24 h, read-out: Percentage of motility inhibition 24 h, Table S2, C. elegans SS assay, 110 μM, 24 h, averages of 4 data points

IN: For COc1cc([C@@H]2c3cc4c(cc3[C@H](O)[C@H]3COC(=O)[C@H]23)OCO4)cc(OC)c1OC , what is its reported inhibition at 110 µM?
OUT: 9%

IN: For CC(=O)O[C@H]1C[C@H](O[C@H]2[C@@H](O)C[C@H](O[C@H]3[C@@H](O)C[C@H](O[C@H]4CC[C@@]5(C)[C@H](CC[C@@H]6[C@@H]5C[C@@H](O)[C@]5(C)[C@@H](C7=CC(=O)OC7)CC[C@]65O)C4)O[C@@H]3C)O[C@@H]2C)O[C@H](C)[C@H]1O[C@@H]1O[C@H](CO)[C@@H](O)[C@H](O)[C@H]1O [Lanatoside C] , what is its reported inhibition at 110 µM?
OUT: 2%

IN: For CCOC(=O)CCC(=O)O[C@H]1[C@H](O[C@@H]2[C@@H](C)[C@H](O[C@H]3C[C@@](C)(OC)[C@@H](O)[C@H](C)O3)[C@@H](C)C(=O)O[C@H](CC)[C@@](C)(O)[C@H](O)[C@@H](C)C(=O)[C@H](C)C[C@@]2(C)O)O[C@H](C)C[C@@H]1N(C)C [Erythromycin Ethylsuccinate] , what is its reported inhibition at 110 µM?
OUT: 7%

IN: For C=C1CC[C@@H]2[C@](C)(CO[C@@H]3O[C@H](CO)[C@@H](O)[C@H](O)[C@H]3O)CCC[C@@]2(C)[C@@H]1CCC1=CCOC1=O [Neoandrographolide] , what is its reported inhibition at 110 µM?
OUT: 40%

IN: For C[C@H]1CC[C@@H]2[C@@H](C)[C@H]3[C@H](C[C@H]4[C@@H]5CC=C6C[C@@H](O)CC[C@]6(C)[C@H]5CC[C@]34C)N2C1 , what is its reported inhibition at 110 µM?
OUT: 0%
